# Tested on: SK-MEL-5
# assay.summary: NCI tumour cell line growth inhibition, 48 h
The source made the active and inactive calls. Cut-off read from the data, not from the text of the source: active = GI50 up to about 1.1 µM and inactive = higher.
Classes used: 1 for active, -1 for inactive

1. CC(=O)N[C@@H](Cc1ccc(O)cn1)C(=O)NCc1cccc(Cl)c1 :: -1
2. O=C(O)c1c[nH]c2c(=O)[nH]cnc12 :: -1
3. [O-][S+]1c2ccccc2N=C(c2cccc3ccccc23)CC1c1cccc2ccccc12 (stereo not drawn) :: -1
4. COC(=O)C1C(O)C(C)C(O)C(C)C=C(C)C2=C3C(=C(C)C(=O)c4c(O)c(c(C)c(OC(C)=O)c43)NC(=O)C(C)=C/C=C\C(C)C(O)C(C)C1O)OCO2 (stereo not drawn) :: -1
5. O=C1Sc2ccccc2C(=O)N2CSCC12 (stereo not drawn) :: -1
6. O=C(O)c1ccccc1[Se][Se]c1ccccc1C(=O)O :: -1
7. CN(C)c1nc(N(C)C)sc(=O)n1 :: -1
8. O=C(O)c1ccc(CNCc2ccccc2)cc1 :: -1
9. CC(=O)OCCOCNC(=S)N/N=C(\C)c1ccco1 :: -1
10. NCCCN(CCCCN(CCCN)CCCc1ccccc1)CCCc1ccccc1 :: -1
11. Cc1ccc(C)c(NC(=O)CC/C(=N\NC(=O)C(=O)NN)C(C)C(=O)c2ccc(O)cc2)c1 (stereo not drawn) :: -1
12. C1=N\CCNCC/N=C/c2ccccc2OCc2cccc(n2)COc2ccccc2/1 :: -1
13. CCOC(=O)C1=CN=C2C(=O)N(c3ccccc3)N(C)C2(C)C1=N (stereo not drawn) :: -1
14. O=C(NCCn1ccnn1)Nc1ccccc1 :: -1
15. C[N+](C)(C)CC1CCCCC1O (stereo not drawn) :: -1
16. CCCCCC(/C=C/[C@@H]1[C@H]2CC(=O)O[C@H]2C[C@H]1N1CCOCC1)OC1CCCO1 (stereo partly drawn) :: -1
17. C/C(=N\Nc1nc2ccccc2s1)c1cnccn1 :: -1
18. COc1cc(S(=O)(=O)Nc2ccc(-c3csc(/N=C\c4cccc(Oc5ccccc5)c4)n3)cc2)ccc1Cl :: -1
19. CC(=O)OC[C@@H](OC(C)=O)[C@H](OC(C)=O)[C@@H]1OC(C)(C)O[C@@H]1C1SCCCS1 :: -1
20. CC(=O)OC[C@@]1(C)[C@@H]2[C@@H]3[C@@]4(CO[C@]3(C)C(=O)[C@@]3(OC(C)=O)C[C@H](C)[C@H](OC(C)=O)[C@@H]3[C@H]4OC(C)=O)[C@H](OC(=O)c3ccccc3)C[C@@H]21 :: -1
21. N#Cc1c(Cl)cc(C#N)n2c1nc1ccccc12 :: -1
22. COP(=O)(OC)C(Cc1c[nH]c2ccccc12)NC(=O)OCc1ccccc1 (stereo not drawn) :: -1
23. OCCc1ccsc1-c1sc(-c2cc(CCO)c(-c3sccc3CCO)s2)cc1CCO :: -1
24. Oc1cc(-c2ccccc2)nc2cc(Cl)ccc12 :: 1
25. COc1cccc2ccc(C(=O)c3ccccc3)nc12 :: -1
26. COC(=O)c1nc(C(=O)OC)c2c([nH]c3ccccc32)c1C(=O)OC :: -1
27. Cc1cc(O)nc(NN2C(Cl)C(=O)C2c2ccco2)n1 (stereo not drawn) :: -1
28. Cc1cc(NCC2CC/C(=C\C=C\c3ccccc3)C2=O)no1 (stereo not drawn) :: -1
29. CC(=O)Nc1ccc(-c2nc3ccccc3s2)cc1O :: -1
30. COc1ccc(C(=O)c2sc(Nc3ccc(Cl)cc3)nc2N)cc1 :: -1
31. C#CCNC(=O)CCC(N)C(=O)O (stereo not drawn) :: -1
32. COC(=O)N/N=C/c1oc(-c2ccccc2)c(-c2ccccc2)c1[N+](=O)[O-] :: -1
33. CC1OC(c2ccc3c(c2O)C(=O)C2=C(C3=O)C3(O)C(=O)CC(C)(O)CC3(O)C=C2)CC(O)C1O (stereo not drawn) :: -1
34. CCc1cccc(C)c1NC(=O)CCc1nnc(SC)o1 :: -1
35. CC(=O)Oc1ccc(O)c2c1CCCC2 :: -1
36. O=C(/C=C/c1ccsc1)c1ccc(Cl)cc1 :: -1
37. BrC(/C=N/Nc1nnc(-c2ccccc2)c(-c2ccccc2)n1)C(Br)c1ccccc1 (stereo not drawn) :: -1
38. COc1ccc([C@H]2[C@H](C)C3=Nc4ccccc4CN32)cc1 :: -1

---

# Test system: OVCAR-4
# assay.summary: NCI tumour cell line growth inhibition, 48 h
Calls of active or inactive are those of the source. Rule as the data show it: active = GI50 up to about 1.1 µM and inactive = higher.
Classes used: yes for active, no for inactive

1. Cc1ccc(C(=O)N/N=C(\N=N\c2cccc([N+](=O)[O-])c2)c2ccc(N(C)C)cc2)cc1 :: no
2. COC(=O)C1(SC)C2CCC3C2CCC31 (configuration not stated) :: no
3. CCCN(CCC)C1=Nc2ccccc2-n2cnnc2C1 :: no
4. O=c1cc2n(c(=O)[nH]1)C1OC(C(O)C1O)[C@H]2CCO (some centres not stated) :: no
5. CCN(CC)CCNc1ccc2ncn3c4c(OC)ccc(O)c4c(=O)c1c23 :: no
6. O=Nc1ccc(O)c2ncccc12 :: no
7. COc1c2c(c3ccccc3c1O)C1C=CC2C1 (configuration not stated) :: no
8. O=C1C2C(C(=O)N1Cc1ccccc1)N(Cc1ccccc1)C(=O)N2Cc1ccccc1 (configuration not stated) :: no
9. CCOC(=O)C1=CN=C2C(=O)N(c3ccccc3)N(C)C2(C)C1=N (configuration not stated) :: no
10. C#CCn1c(=O)c2cc(OC)c(OC)cc2n(CC#C)c1=O :: no
11. CCOc1ccc(N(CC(=O)N2CC(=O)Nc3cc(C)c(C)cc32)C(C)=O)cc1 :: no
12. Cc1cc(C)[n+]2c(c1)C=CC2.[O-][Cl+3]([O-])([O-])[O-] :: no
13. COc1cnc2oc3ccc(O)cc3c2c1-c1ccccc1 :: no
14. COc1cc(C2c3cc4c(cc3[C@@H](Nc3ccc(F)cc3)C3CO[C@@H](O)[C@H]23)OCO4)cc(OC)c1O (some centres not stated) :: no
15. CC(C)CS(=O)(=O)/C(=C(\c1ccc(Br)cc1)S(=O)(=O)CC(C)C)c1ccc(Br)cc1 :: no
16. CCOC(=O)C(NC(=O)c1ccccc1)(N1CCOCC1)C(F)(F)F (configuration not stated) :: no
17. C1COCCOP2(N3CC3)=NP(N3CC3)(=NP(N3CC3)(N3CC3)=N2)OCCOCCO1 (configuration not stated) :: no
18. C/C(=N\Nc1nc2ccccc2s1)c1cnccn1 :: no
19. CN(C)CCNCCCNc1c2ccccc2nc2cccc([N+](=O)[O-])c12 :: yes
20. N#Cc1c(Cl)cc(C#N)n2c1nc1ccccc12 :: no
21. CCCC(Sc1ccccc1)P(=O)(c1ccccc1)c1ccccc1 (configuration not stated) :: no
22. O=C1C=C(c2ccccc2)O/C1=C/C(=O)c1ccc(Cl)cc1 :: no
23. O=c1[nH]c(=S)[nH]cc1CN1CCOCC1 :: no
24. O=C1NCN(c2ccccc2)C12CCN(CCc1ccc3[nH]c(=S)[nH]c3c1)CC2 :: no
25. O=C(O)C(Br)Cc1ccc2c(c1)OCO2 (configuration not stated) :: no
26. COc1ccc(C(=C2C=CC=C2)c2ccc(OC)cc2)cc1 :: no
27. S=C1NCN2CCN(CC2)CNC(=S)C(=S)NCN2CCN(CC2)CNC1=S :: no
28. COC(=O)C1C(OS(=O)(=O)O)CCC2CN3CCc4c([nH]c5ccccc45)C3CC21 (configuration not stated) :: no
29. CCOC(=O)c1c(SCCO)n(-c2ccccc2)c(=S)n(-c2ccccc2)c1=O :: no
30. O=C(OCCNC(=O)N1CC1)OCCNC(=O)N1CC1 :: no
31. CCN(CC)CC(=O)/C=C/c1ccc(C)cc1 :: no
32. O=C(OCc1nc2ccc(Br)cc2c(=O)n1-c1ccccc1)c1ccccc1O :: no

---

# System: DLD-1
# assay.summary: NCI tumour cell line growth inhibition, 48 h
Activity calls are given as the source filed them. No stated cut-off is given here; in the data, active = GI50 up to about 1.1 µM and inactive = higher.
Classes used: active, inactive

1) CC1CC2C3CCC4=CC(=O)C=CC4(C)C3(F)C(O)CC2(C)C1(O)C(=O)COP(=O)(O)O (stereo unspecified) :: inactive
2) O=C(/C=C/c1ccccc1)c1ccc(NCc2nc3ccccc3[nH]2)cc1 :: inactive
3) O=c1c2ccccc2oc2nccnc12 :: inactive
4) COc1ccc(/C=C2/CSC/C(=C/c3ccc(OC)c(OC)c3)C2=O)cc1OC :: active
5) CCc1cccc(C(C)C)c1C1C(=O)C(=O)N(c2nc3ccccc3s2)C(=O)C1=O :: inactive
6) CC(=O)Oc1ccc(O)c2c1CCCC2 :: inactive
7) O=c1[nH]c(=O)n(C2CC(O)C(CO)O2)cc1C#Cc1cc(F)cc(F)c1 (stereo unspecified) :: inactive
8) O=C1[C@H]2ON(c3ccccc3)C(c3ccc(Cl)cc3)[C@H]2C(=O)N1c1ccc(Cc2ccc(N3C(=O)[C@@H]4ON(c5ccccc5)C(c5ccc(Cl)cc5)[C@@H]4C3=O)cc2)cc1 (stereo partly specified) :: inactive
9) Nc1cccc2c1-c1c(cccc1[N+](=O)[O-])C2=O :: inactive
10) CN(N=O)C(=O)N[C@H]1C(O)O[C@H](CO)[C@@H](O)[C@@H]1O (stereo partly specified) :: inactive
11) CCCC(C)NC1=C(NC(C)=O)C(=O)c2ccccc2C1=O (stereo unspecified) :: inactive
12) CCOC(=O)NC(=O)c1cn(CCCOC(=O)CCCCCCCCCCC(=O)OCCCn2cc(C(=O)NC(=O)OCC)c(=O)n(C)c2=O)c(=O)n(C)c1=O :: inactive
13) CCOC(=O)CN(Cn1cncn1)Cn1cncn1 :: inactive
14) C/C=C/C=C/[C@H]1Cc2cc(O)cc(O)c2O1 :: inactive
15) O=C1C=C(O)c2nc(O)ccc2C1=O :: inactive
16) COc1cc2c(cc1OC)C(C(CBr)CBr)N(C1CCCC1)CC2 (stereo unspecified) :: inactive
